- experiment summary: NCI Yeast Anticancer Drug Screen. Data for the rad50 strain (AID 155);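 also: 0% = growth of vehicle-only cultures of the same strain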
- assay context: S. cerevisiae rad50 strain growth inhibition; at 50.0 µM; stronger effect = higher value
This is part of a sample that, as a whole, favours compounds with a hit. Of some 79,000 tested, about 15% had one in any assay.
Note to self: class labels come from recorded growth inhibition, ranges listed here: band A: < -10%; band B: ≥ -10% and < 20%; band C: ≥ 20%

Worked examples, 5 compounds total:
[
  {
    "compound": "Cc1nc(N)sc1S(=O)(=O)F",
    "class name": "band A"
  },
  {
    "compound": "CC([NH-])C(C)[NH-].CC([NH-])C(C)[NH-].CC([NH-])C(C)[NH-].[Cr+6] (stereo not drawn)",
    "class name": "band B"
  },
  {
    "compound": "O=c1[nH]c2ccccc2c(=O)n1-c1ccccc1",
    "class name": "band B"
  },
  {
    "compound": "NCCN.NCCN.O=C([O-])CCl.O=C([O-])CCl.[Co+3].[O-][Cl+3]([O-])([O-])[O-]",
    "class name": "band A"
  },
  {
    "compound": "[Cl][Sn]([Cl])([c]1ccccc1)[c]1ccccc1.c1ccc2nc(-c3ccc4ccccc4n3)ccc2c1",
    "class name": "band C"
  }
]

Prompt: Please indicate the class for Cc1cc[n+](C2=C(Nc3c(C)cccc3C)C(=O)c3ccccc3C2=O)cc1 based on its growth inhibition.
Completion: band C

Prompt: Please indicate the class for O.O=C(O)C(=O)O.[NH2-].[Zn] based on its growth inhibition.
Completion: band A

Prompt: Please indicate the class for CCOC(=O)C(Br)C(C)C (stereo not drawn) based on its growth inhibition.
Completion: band C

Prompt: Please indicate the class for CCN(CC)CCc1ccccn1 based on its growth inhibition.
Completion: band A

Prompt: Please indicate the class for [N-]=[N+]=NS(=O)(=O)c1ccccc1S(=O)(=O)N=[N+]=[N-] based on its growth inhibition.
Completion: band C

Prompt: Please indicate the class for CC(c1ccccc1)N1O[C@]12CC[C@@]1(C)C(CCCC13OCCO3)C2 (stereo partly drawn) based on its growth inhibition.
Completion: band C

Prompt: Please indicate the class for CC(C(=O)O)C(Br)C(=O)O (stereo not drawn) based on its growth inhibition.
Completion: band B

###

- experiment summary: NCI Yeast Anticancer Drug Screen. Data for the rad50 strain (AID 155);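 also: 0% = growth of vehicle-only cultures of the same strain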
- assay context: S. cerevisiae rad50 strain growth inhibition; at 50.0 µM; stronger effect = higher value
Compounds without any hit were thinned out: in the full panel of roughly 79,000, 15% have a hit. Activity calls are given as the source filed them. Rule as the data show it: active = growth inhibition above about 70%; inactive = the rest.
value kind: growth inhibition

Example cases with answers are listed next.
[
  {
    "compound": "CCCCCc1cc(OC(=O)CCCN(CC)CC)c2c(c1)OC(C)(C)[C@@H]1CCC(C)=C[C@@H]21",
    "growth inhibition": "87% (active)"
  },
  {
    "compound": "CC(C)c1cc2c(cc1O)C1(C)CCCC(C)(C)C1CC2=O (stereo unspecified)",
    "growth inhibition": "27.4% (inactive)"
  },
  {
    "compound": "NNC(=O)c1ccc(N)cc1",
    "growth inhibition": "-12.1% (inactive)"
  },
  {
    "compound": "CC1CN=C(Nc2ccc(F)c(Cl)c2)S1 (stereo unspecified)",
    "growth inhibition": "-14.4% (inactive)"
  },
  {
    "compound": "ClCCN(CCCl)c1ccc(-c2csc(Cc3ccccc3)n2)cc1",
    "growth inhibition": "-2% (inactive)"
  },
  {
    "compound": "CCC[CH2][Sn]([CH2]CCC)([CH2]CCC)[CH2]S(=O)(=O)O",
    "growth inhibition": "99.3% (active)"
  },
  {
    "compound": "CC(C)(C)c1cc(C#N)cc(Br)c1OP(=O)(Oc1c(Br)cc(C#N)cc1C(C)(C)C)c1ccccc1",
    "growth inhibition": "-9.6% (inactive)"
  },
  {
    "compound": "COC(=O)C1=C(C(=O)OC)C2(C)OC1c1ccccc12 (stereo unspecified)",
    "growth inhibition": "98.2% (active)"
  },
  {
    "compound": "CCOC(CBr)OCC",
    "growth inhibition": "14.4% (inactive)"
  },
  {
    "compound": "O=C(CCl)NC1CCCCC1",
    "growth inhibition": "9.7% (inactive)"
  }
]

Take each entry in turn and give its growth inhibition.
1. COC1CC(OC2C(C)OC(OC3C(C)OC(OC4CCC5(C)C(=CCC6(O)C5CC(OC(=O)c5ccc(O)cc5)C5(C)C(O)(C(C)=O)CCC65O)C4)CC3OC)CC2OC)OC(C)C1O (stereo unspecified) (tested in a mixture with another compound)
2. CC1N=NNN1C (stereo unspecified)
3. CC[n+]1c(/C=C/c2ccc(N(CCCl)CCCl)cc2)ccc2cc(NC(=O)/C=C/c3ccccc3)ccc21
4. COc1cc(C(CN)N(C)C)cc(OC)c1OC (stereo unspecified)
5. NC(CSC(c1ccccc1)c1ccccc1)C(=O)O (stereo unspecified)
6. CCCNC1=C(C)C(=O)C2=C(C1=O)[C@H](COC(N)=O)[C@]1(OC)[C@@H]3N[C@@H]3CN21
7. O=[N+]([O-])c1ccc(C#Cc2ccc(N(CCCl)CCCl)cc2)cc1
8. O=C(O)c1cc(C(=O)O)cc(S(=O)(=O)F)c1

Completion:
["45.9% (inactive)", "-1.8% (inactive)", "82.1% (active)", "-42.6% (inactive)", "6.3% (inactive)", "36.8% (inactive)", "1.95% (inactive)", "13.5% (inactive)"]

###

- experiment summary: NCI Yeast Anticancer Drug Screen. Data for the cln2 rad14 strain (AID 165);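 also: 0% = growth equal to vehicle treated cultures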
- assay context: S. cerevisiae cln2 rad14 strain, at 5.0 µM (retest, dose inferred, filed as 0.5), stronger effect = higher value
Compounds without any hit were thinned out: in the full panel of roughly 79,000, 15% have a hit.
value kind: growth inhibition (%)
Answers are plain numbers, in %.

Example cases with answers are listed next.
[
  {
    "compound": "CCOC(=O)C(Cl)Cl",
    "quantity unit": "%",
    "growth inhibition": -2
  },
  {
    "compound": "C[C@@H]1C[C@H]2CC[C@H](O2)[C@H](C)C(=O)O[C@@H](C)C[C@@H]2CC[C@@H](O2)[C@@H](C)C(=O)O[C@H](C)C[C@H]2CC[C@H](O2)[C@H](C)C(=O)O[C@@H](C)C[C@@H]2CC[C@@H](O2)[C@@H](C)C(=O)O1",
    "quantity unit": "%",
    "growth inhibition": 55
  }
]

Take each entry in turn and give its growth inhibition.
1. CC12OOC(c3ccccc31)c1c2ccc2ccccc12 (stereo not given)
2. COc1ccccc1/C=C/[N+](=O)[O-]
3. CC1(Br)Cc2ccccc2C1=O (stereo not given)
4. CCSc1nc(=[N+]2CCCC2)ss1
5. CC1=CC2CC(C)=C(CC[C@]3(C)CC[C@H]([C@@H](C)C(=O)O)OO3)C(C)(C)C2CC1 (stereo not given in full)
6. O=C(CBr)OCC(O)CCl (stereo not given)
7. C[CH2][Sn]([O][Sn]([Cl])([CH2]C)[c]1ccccc1)[c]1ccccc1 (stereo not given)
8. CCC1CC[N-]CC1.CCC1CC[N-]CC1.N#C[S-].N#C[S-].[Cd]

Completion:
1: 71; 2: 62; 3: 1; 4: 29; 5: 41; 6: 49; 7: 28; 8: 4

###

- experiment summary: NCI Yeast Anticancer Drug Screen. Data for the sgs1 mgt1 strain (AID 161);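 also: 0% = growth of cultures given vehicle only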
- assay context: S. cerevisiae sgs1 mgt1 strain, at 50.0 µM
About 79,000 compounds went through this panel and 15% of them were active in at least one assay; those are over-represented in the sample as a whole. The source made the active and inactive calls. Cut-off read from the data, not from the text of the source: active = growth inhibition above about 70%; inactive = the rest.
Allowed answers: active, inactive

Worked examples, 5 molecules total:
[
  {
    "molecule": "Cc1nc2ccccc2c(=O)n1-c1ccc(N(CCCl)CCCl)cc1",
    "class name": "inactive"
  },
  {
    "molecule": "CC1(C)CC(=O)CC(C)(C)C1",
    "class name": "inactive"
  },
  {
    "molecule": "COC(=O)N/N=C(/CCN1CCCC1)CC(c1ccccc1)c1c(O)c2ccccc2oc1=O (configuration not stated)",
    "class name": "inactive"
  },
  {
    "molecule": "CNC(=S)P(c1ccccc1)c1ccccc1",
    "class name": "inactive"
  },
  {
    "molecule": "CCCC(Br)C(=O)OCC (configuration not stated)",
    "class name": "inactive"
  }
]

Prompt: Test call for this molecule, please: C1N2CN3CN1CN(C2)C3.[Cu+2]
Completion: inactive

Prompt: Test call for this molecule, please: C1CC[N-]CC1.C1CC[N-]CC1.C1CC[N-]CC1.C1CC[N-]CC1.[Cl][Rh][Cl]
Completion: inactive

Prompt: Test call for this molecule, please: [O-][n+]1c2ccccc2nn1-c1ccc(N(CCCl)CCCl)cc1
Completion: inactive

Prompt: Test call for this molecule, please: NNC(=S)NN
Completion: inactive

Prompt: Test call for this molecule, please: N#CC(c1ccccc1)c1ccccc1
Completion: inactive

Prompt: Test call for this molecule, please: CN(CCCl)c1ccc(/C=C/C2=[N+](C)c3ccccc3C2(C)C)cc1
Completion: active

Prompt: Test call for this molecule, please: CN1C(=O)NC(C)(c2cccc(N(CCCl)CCCl)c2)C1=O (configuration not stated)
Completion: inactive
